Cited source for all entries: the RNAGym collection of RNA variant scans (doi:10.1126/science.aae0568)

B1: tRNA (parent)
chain: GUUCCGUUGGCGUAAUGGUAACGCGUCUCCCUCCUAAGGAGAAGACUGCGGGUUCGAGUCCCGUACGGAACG

- Variants of: B1
- ASSAY REMARKS: yeast fitness relative to wild type (ratio to wild type); higher = fitter; tRNA-Arg(CCU), competitive growth, 37 C, YPD
Variants at the floor of the assay were thinned out.
For each of the variants below, state its yeast fitness.
One number for each entry.

# count of solved cases: 3
Query: Recorded yeast fitness of C29G U64G , please.
Response: 0.635

Query: Recorded yeast fitness of A14G G23C C55U C61U A65U , please.
Response: 0.558

Query: Recorded yeast fitness of G9C U13G U28C G41C A43C A45U C49G U53G A69C , please.
Response: 0.611

Each variant below has a reported value. Please supply its yeast fitness.
1. A40G U64A
2. C27G G41A C55U

Response:
1. 0.737
2. 0.618
